METHOD_DESCRIPTION: green autofluorescence of compounds with avidin beads – biophysical, 488/530 nm, flow cytometry, artefact control, profiling panel (AID 1775)
EXPERIMENTAL_SETUP: compound fluorescence 488/530 nm, at 10 µM, active compounds read high
Screen size: about 220,000 compounds; about 820 (0.37%) were called active. The sample holds actives, similar compounds and a random draw of the others, so the mix is not that of the screen.
Quick rule for you: fluorescence (KMESF) at 9 or higher means Condition met, lower means Condition not met.

- COMPOUND: "CC(O)c1nc2ccccc2n1Cc1ccc([N+](=O)[O-])cc1 (stereo unspecified)"
  CATEGORY_LABEL: "Condition not met"
- COMPOUND: "CCOC(=O)C(C)Sc1nnc(CSc2nc3nc(C)cc(C)n3n2)o1 (stereo unspecified)"
  CATEGORY_LABEL: "Condition met"
- COMPOUND: "COCCCn1c(-c2cccs2)nc2nc3ccccc3nc21"
  CATEGORY_LABEL: "Condition not met"
- COMPOUND: "Cc1cc(C(=O)NCCc2ccc(Cl)cc2)n(-c2ccccc2)n1"
  CATEGORY_LABEL: "Condition not met"

Task: # bool: fluorescence (KMESF) of COC(=O)c1cn(C(=O)c2ccc(Cl)cc2)c2ccccc12 >= 9
Result: Condition not met

Task: # bool: fluorescence (KMESF) of CC(C)OCCCNc1nc2c(c(=O)n(Cc3ccccc3F)c(=O)n2C)n1C >= 9
Result: Condition met

Task: # bool: fluorescence (KMESF) of CCOc1ccc(Br)cc1CSC(=N)N >= 9
Result: Condition not met

Task: # bool: fluorescence (KMESF) of CC(C)C(=O)Nc1c(O)c2ccccc2[nH]c1=O >= 9
Result: Condition met

Task: # bool: fluorescence (KMESF) of COc1ccc(S(=O)(=O)N2CCCCCC2)cc1C(=O)OCC(=O)Nc1cc(C)on1 >= 9
Result: Condition met

====

METHOD_DESCRIPTION: green autofluorescence of compounds with avidin beads – biophysical, 488/530 nm, flow cytometry, artefact control, profiling panel (AID 1775)
EXPERIMENTAL_SETUP: compound fluorescence 488/530 nm, at 10 µM, active compounds read high
Screen size: about 220,000 compounds; about 820 (0.37%) were called active. What follows is part of a selection rich in actives, with near analogues and random picks from the rest.
Kindly state fluorescence (KMESF) for each of the entries shown.

Batch of 8 molecules: report fluorescence (KMESF) for each.
1. Cc1ccccc1CS(=O)(=O)CC1(O)CCN(C(=O)c2cccc(C(F)(F)F)c2)CC1
2. Cc1ccc(OCC(=O)Nc2ccc(-c3nnc(-c4ccco4)o3)cc2)cc1
3. Cc1ccc(S(=O)(=O)/N=C(/NC(=S)Nc2c(C)n(C)n(-c3ccccc3)c2=O)c2ccccc2)cc1
4. CCn1ccnc1CN1CCCC(C(=O)c2ccc3c4c(cccc24)CC3)C1 (configuration not stated)
5. O=C(COc1cccc(-n2cnnn2)c1)NCCC1=CCCCC1
6. Cc1cc(N2CCN(c3ccc(F)cc3)CC2)n2ncnc2n1
7. Cc1cc(=O)n2[nH]c(-c3sccc3-n3c(C)ccc3C)cc2n1
8. CNC(=S)NNC(=O)c1oc2nc(-c3ccccc3)cc(-c3ccco3)c2c1N

Result:
["88 (active)", "50 (active)", "53 (active)", "8 (inactive)", "5 (inactive)", "9 (inactive)", "5 (inactive)", "7 (inactive)"]

Batch of 8 molecules: report fluorescence (KMESF) for each.
1. CCOc1ccc(S(=O)(=O)N/N=C(\C)c2ccc(Cl)c(Cl)c2Cl)cc1
2. Nc1c(-c2ccc(F)cc2)cnc2ncnn12
3. Clc1ccc(C[n+]2cc(-c3ccccc3)n3c2CCC3)cc1
4. Cc1ccccc1CN1CCN(C(=O)c2cccc(F)c2)CC1
5. Cc1nc(-c2ccc(Cl)cc2)sc1C1(C)CC(c2ccccc2F)=NO1 (configuration not stated)
6. Nc1c(-c2ccc(F)cc2)cnn1C1CCS(=O)(=O)C1 (configuration not stated)
7. Cc1ccc(S(=O)(=O)N(C)CC(=O)NC2CCCC2)cc1
8. COC(=O)c1c(C(=O)OC)c(-c2cccc(C)c2)n2c1CS(=O)C2 (configuration not stated)

Result:
7 (inactive)
76 (active)
7 (inactive)
4 (inactive)
7 (inactive)
7 (inactive)
10 (inactive)
7 (inactive)

Batch of 6 molecules: report fluorescence (KMESF) for each.
1. CC(=O)NCC(=O)N1CCCC(C(=O)c2ccc3c4c(cccc24)CC3)C1 (configuration not stated)
2. Cc1ccc(S(=O)(=O)CC(=O)Nc2c(C)n(C)n(-c3ccccc3)c2=O)cc1
3. O=C(NNS(=O)(=O)c1ccc(F)cc1)c1cnccn1
4. O=C(/C=C/c1ccc(Cl)c([N+](=O)[O-])c1)c1ccc(O)cc1
5. CCOc1ccc(-c2nnc(-c3ccco3)o2)cc1
6. CN(C)c1ccc(/C=C/C(=O)c2ccc(C(C)(C)C)cc2)cc1[N+](=O)[O-]

Result:
["80 (active)", "12 (inactive)", "10 (inactive)", "6 (inactive)", "8 (inactive)", "57 (active)"]

====

METHOD_DESCRIPTION: green autofluorescence of compounds with avidin beads – biophysical, 488/530 nm, flow cytometry, artefact control, profiling panel (AID 1775)
EXPERIMENTAL_SETUP: compound fluorescence 488/530 nm, at 10 µM
Screen size: about 220,000 compounds; about 820 (0.37%) were called active. No stated cut-off is given here; in the data, active means fluorescence above about 47; inactive means the rest. The sample as a whole holds a higher share of actives than the screen did.
Hello, when you answer, please use one of the following outcomes: active, inactive

Task: Short answer needed: outcome of this test for COc1cc(OC)cc(-c2nc3nc(C)c(CCC(=O)NCc4ccco4)c(C)n3n2)c1 ?
Result: active

Task: Short answer needed: outcome of this test for O=C(NCCOc1ccccc1Cl)C(=O)Nc1ccccc1 ?
Result: inactive

Task: Short answer needed: outcome of this test for CC(=O)NCC(=O)N(Cc1ccco1)C1(C(=O)NC2CCCC2)CCCCC1 ?
Result: inactive

Task: Short answer needed: outcome of this test for COc1ccc(Cl)cc1N(CC(=O)N/N=C/c1ccc(OCC(N)=O)cc1)S(C)(=O)=O ?
Result: inactive

Task: Short answer needed: outcome of this test for CC1=CC(=C(C#N)c2nc3ccccc3s2)C=C(C)N1c1ccc(F)cc1F ?
Result: inactive

====

METHOD_DESCRIPTION: green autofluorescence of compounds with avidin beads – biophysical, 488/530 nm, flow cytometry, artefact control, profiling panel (AID 1775)
EXPERIMENTAL_SETUP: compound fluorescence 488/530 nm, at 10 µM, active compounds read high
Out of some 220,000 compounds screened, about 820 (0.37%) were called active. The entries come from a sample that favours actives as a whole.
Kindly state fluorescence (KMESF) for each of the entries shown.
One number for each entry.

- MOLECULE: "Cc1ccc(-c2cn(S(=O)(=O)c3cccc([N+](=O)[O-])c3)nc2N)cc1"
  fluorescence (KMESF): 2

Batch of 5 molecules: report fluorescence (KMESF) for each.
1. COC(=O)CNC(=O)c1ccc(OC2CCN(C(=O)C3CC3)CC2)cc1
2. COc1ccc(Br)cc1C(=O)Nc1cccc(C)c1C
3. COc1ccc(CCNC(=O)CCCCn2c(=O)[nH]c3ccccc3c2=O)cc1OC
4. O=C(CCCCCn1c(=O)[nH]c2ccccc2c1=O)NCCc1c[nH]c2ccccc12
5. CC(CNC(=O)c1ccc(Br)o1)NC(=O)c1ccc(Br)o1 (stereo not given)

Result:
1. 7
2. 8
3. 39
4. 14
5. 48

====

METHOD_DESCRIPTION: green autofluorescence of compounds with avidin beads – biophysical, 488/530 nm, flow cytometry, artefact control, profiling panel (AID 1775)
EXPERIMENTAL_SETUP: compound fluorescence 488/530 nm, at 10 µM
Hit rate of the full screen: of about 220,000 compounds, about 820 (0.37%) were called active. Cut-off read from the data, not from the text of the source: active = fluorescence above about 47; inactive = the rest. The full list was thinned out, with actives kept by preference.
Hello, when you answer, please use one of the following outcomes: Yes for active, No for inactive

- COMPOUND: "C/C=C/C(=O)Nc1ccc(N2CCN(c3ccc(C(F)(F)F)cn3)CC2)nc1"
  CATEGORY_LABEL: "No"
- COMPOUND: "CCNC(=O)CCc1nc(-c2ccc(C)cc2)no1"
  CATEGORY_LABEL: "No"
- COMPOUND: "C/C(=N/Nc1ccc(Cl)cc1)c1cnnc(-c2ccccc2)n1"
  CATEGORY_LABEL: "No"
- COMPOUND: "Cc1ccc(-c2noc(CCC(N)=O)n2)cc1"
  CATEGORY_LABEL: "No"

Task: Short answer needed: outcome of this test for Cc1cc(C)nc(NC(=O)/C=C/c2ccc(Cl)cc2)n1 ?
Result: No

====

METHOD_DESCRIPTION: green autofluorescence of compounds with avidin beads – biophysical, 488/530 nm, flow cytometry, artefact control, profiling panel (AID 1775)
EXPERIMENTAL_SETUP: compound fluorescence 488/530 nm, at 10 µM, active compounds read high
About 820 (0.37%) of roughly 220,000 compounds were called active. Many of the other results were omitted from the sample, so actives are more common in it than they were.
EXPERIMENTAL_READOUT: fluorescence (KMESF)

- STRUCTURE_NOTATION: "O=C(/C(=N\\O)n1cncn1)c1ccc(Br)cc1Br"
  fluorescence (KMESF): "5 (inactive)"
- STRUCTURE_NOTATION: "COc1ccc(Nc2ncc(F)c(N3CCOCC3)n2)cc1"
  fluorescence (KMESF): "5 (inactive)"

Batch of 4 compounds: report fluorescence (KMESF) for each.
1. CC(C)/C=N/NC(=O)c1cc(Br)ccc1O
2. CC(=O)N/N=C(\C)c1ccc(Br)cc1Br
3. CC(CO)(CO)NC(=O)c1ccc(=O)[nH]n1
4. NC(=O)N/N=C\c1cccs1

Result:
1. 2 (inactive)
2. 173 (active)
3. 4 (inactive)
4. 12 (inactive)
